# System Tested: EDNRB (Homo sapiens)
# Construct: purchased Promega (in-house HiBiT-GPCR construct library, NanoBRET)
# Sequence (P24530 27-442): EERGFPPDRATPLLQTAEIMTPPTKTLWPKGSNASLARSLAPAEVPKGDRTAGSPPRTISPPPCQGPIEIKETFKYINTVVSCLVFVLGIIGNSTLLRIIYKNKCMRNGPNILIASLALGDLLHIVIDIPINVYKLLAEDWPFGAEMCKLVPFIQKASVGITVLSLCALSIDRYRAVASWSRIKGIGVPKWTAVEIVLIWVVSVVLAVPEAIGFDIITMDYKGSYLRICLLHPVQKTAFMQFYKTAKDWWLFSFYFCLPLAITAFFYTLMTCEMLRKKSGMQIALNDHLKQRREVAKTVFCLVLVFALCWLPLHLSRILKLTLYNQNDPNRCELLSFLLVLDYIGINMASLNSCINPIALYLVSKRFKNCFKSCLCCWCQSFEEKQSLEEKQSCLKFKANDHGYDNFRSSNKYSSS
# Method: NanoBRET screen HiBiT-EDNRB in HEK293
# Format: binding
# Condition Info: EDNRB; tracer 1μM
Quick reference for NanoBRET Fold Response among some molecules
Form field (numeric): enter value without unit.

Sample answers from the record:
O=C(CCOCCOCCOCCOCCNC(=O)CCc1ccc2n1[B-](F)(F)[N+]1=C(c3ccc[nH]3)C=CC1=C2)NCCCN1CCN(C2=Nc3ccccc3Oc3ccc(Cl)cc32)CC1 = 0.89
O=C(CCc1ccc2n1[B-](F)(F)[N+]1=C(c3ccc[nH]3)C=CC1=C2)NCc1ccc(C(=O)NCCOCCC(=O)N[C@@H]2CC[C@@]3(O)[C@H]4Cc5ccc(O)c6c5[C@@]3(CCN4CC3CC3)[C@H]2O6)cc1 [Naltrexone-3-NB590] = 1.06
Cc1nc2n(c(=O)c1CCN1CCC(c3noc4cc(F)ccc34)CC1)CCCC2OC(=O)NCCOCCOCCOCCOCCNC(=O)CCc1ccc2n1[B-](F)(F)[N+]1=C(c3ccc[nH]3)C=CC1=C2 (centres unmarked) = 0.97
COc1ccccc1N1CCN(CCCCN2C(=O)c3ccc(CNC(=O)CCOCCOCCOCCOCCNC(=O)CCc4ccc5n4[B-](F)(F)[N+]4=C(c6ccc[nH]6)C=CC4=C5)cc3C2=O)CC1 = 0.99

Here's the next entry for you.
Inquiry: For the molecule shown here, O=C(CCc1ccc2n1[B-](F)(F)[N+]1=C(c3ccc[nH]3)C=CC1=C2)NCCOCCOCCNC(=O)OCCOCCN1CCN(C2=Nc3ccccc3Sc3ccccc32)CC1 , give the reported NanoBRET Fold Response.
Reply text: 0.99
